# targetOrTestSystem: DCN1-like protein 1/NEDD8-conjugating enzyme Ubc12 (Homo sapiens)
# measurementProtocol: Inhibition of GST-tagged DCN1 (unknown origin)/acetylated-biotin tagged UBC12 (unknown origin) protein-protein interaction incubated for 30 mins by HTRF assay
pIC50: −log10 of the molar value.
attributeMeasured: pIC50

Cc1ccc(-c2n[nH]c(=S)n2CCC(=O)Nc2cccc(C(F)(F)F)c2)cc1 :: 8.03
CCSc1nnc(-c2ccc(Cl)cc2)n1CCC(=O)Nc1cccc(C(F)(F)F)c1 :: 5.66
O=C(CCn1c(-c2ccc(O)cc2)n[nH]c1=S)Nc1ccccc1C(F)(F)F :: 7.00
O=C(CCn1c(-c2c[nH]c3ccccc23)n[nH]c1=S)Nc1cccc(C(F)(F)F)c1 :: 8.03

* * *

# IC50 values compiled below
# targetOrTestSystem: DCN1-like protein 1/NEDD8-conjugating enzyme Ubc12 (Homo sapiens)
# measurementProtocol: Inhibition of GST-tagged DCN1 (unknown origin)/acetylated-biotin tagged UBC12 (unknown origin) protein-protein interaction incubated for 30 mins by HTRF assay
attributeMeasured: IC50 (µM)

CC(C)c1ccc(NC(=O)CCn2c(-c3ccc(Cl)cc3)n[nH]c2=S)cc1 :: 0.0128
CC(C)c1cccc(NC(=O)CCn2c(-c3ccc(Cl)cc3)n[nH]c2=S)c1 :: 0.0157
COc1ccc(-c2n[nH]c(=S)n2CCC(=O)Nc2ccc(Br)cc2O)cc1 :: 0.209
O=C(CCn1c(-c2ccccc2)n[nH]c1=S)Nc1cccc(C(F)(F)F)c1 :: 0.0153
O=C(CCn1c(-c2ccc(Cl)cc2Br)n[nH]c1=S)Nc1cccc(C(F)(F)F)c1 :: 0.00541
Cc1ccc(NC(=O)CCn2c(-c3ccc(Cl)cc3)n[nH]c2=S)cc1 :: 0.0505
COc1ccc(CSc2nnc(-c3ccc(Cl)cc3)n2CCC(=O)Nc2cccc(C(F)(F)F)c2)cc1 :: 4.11

* * *

# measurementProtocol: Inhibition of GST-tagged DCN3 (unknown origin)/acetylated-biotin tagged UBC12 (unknown origin) protein-protein interaction assessed as inhibition constant incubated for 30 mins by HTRF assay
pKi: −log10 of the molar value.
# pKi values compiled below
attributeMeasured: pKi

C#CCSc1nc(Sc2nccs2)c(C#N)c(-c2ccc(C)cc2)n1 :: 6.23
COc1cc(-c2nc(SCc3ccc(Cl)cc3)nc(Sc3nnnn3C)c2C#N)cc(OC)c1OC :: 6.41

* * *

# targetOrTestSystem: DCN1-like protein 1/NEDD8-conjugating enzyme Ubc12 (Homo sapiens, UniProt Q96GG9)
# Sequence (Q96GG9 whole entry): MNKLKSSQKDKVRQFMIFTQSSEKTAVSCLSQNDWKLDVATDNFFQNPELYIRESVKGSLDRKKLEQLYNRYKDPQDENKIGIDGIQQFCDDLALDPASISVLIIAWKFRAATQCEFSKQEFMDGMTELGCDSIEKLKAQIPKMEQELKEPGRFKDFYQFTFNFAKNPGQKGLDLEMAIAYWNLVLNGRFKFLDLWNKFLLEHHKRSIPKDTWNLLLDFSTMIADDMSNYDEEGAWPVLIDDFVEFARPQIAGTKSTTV
# Sequence (P61081 whole entry, further chain): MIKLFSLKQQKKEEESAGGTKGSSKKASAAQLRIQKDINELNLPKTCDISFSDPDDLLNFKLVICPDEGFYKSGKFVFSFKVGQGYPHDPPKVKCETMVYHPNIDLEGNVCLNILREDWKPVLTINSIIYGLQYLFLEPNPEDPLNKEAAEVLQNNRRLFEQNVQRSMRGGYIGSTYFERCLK
# measurementProtocol: Inhibition of GST-tagged DCN1 (unknown origin)/acetylated-biotin tagged UBC12 (unknown origin) protein-protein interaction incubated for 30 mins by HTRF assay
pIC50: −log10 of the molar value.
# pIC50 >= 7 gives 1, anything below gives 0

CCCCc1ccc(NC(=O)CCn2c(-c3ccc(Cl)cc3)n[nH]c2=S)cc1 :: 1
N#Cc1cc(NC(=O)CCn2c(-c3ccc(Cl)cc3)n[nH]c2=S)n[nH]1 :: 0
COc1ccccc1NC(=O)CCn1c(-c2ccc(Cl)cc2)n[nH]c1=S :: 0
O=C(CCn1c(-c2ccc(Cl)cc2)n[nH]c1=S)NCCc1c[nH]c2ccccc12 :: 0
COc1ccc(-c2n[nH]c(=S)n2CCC(=O)NCCc2c[nH]c3ccccc23)cc1 :: 0
O=C(CCn1c(-c2ccccc2Cl)n[nH]c1=S)Nc1cccc(C(F)(F)F)c1 :: 1
COc1ccc(CNC(=O)CCn2c(-c3ccc(OC)cc3)n[nH]c2=S)cc1 :: 0
O=C(CCn1c(-c2ccc(Br)cc2)n[nH]c1=S)Nc1cccc(C(F)(F)F)c1 :: 1
